Target: NLRP3 (Homo sapiens, UniProt Q96P20)
Construct: host or cells: THP-1 cells, PMA-differentiated, LPS-primed, nigericin-stimulated
Sequence (Q96P20 whole entry): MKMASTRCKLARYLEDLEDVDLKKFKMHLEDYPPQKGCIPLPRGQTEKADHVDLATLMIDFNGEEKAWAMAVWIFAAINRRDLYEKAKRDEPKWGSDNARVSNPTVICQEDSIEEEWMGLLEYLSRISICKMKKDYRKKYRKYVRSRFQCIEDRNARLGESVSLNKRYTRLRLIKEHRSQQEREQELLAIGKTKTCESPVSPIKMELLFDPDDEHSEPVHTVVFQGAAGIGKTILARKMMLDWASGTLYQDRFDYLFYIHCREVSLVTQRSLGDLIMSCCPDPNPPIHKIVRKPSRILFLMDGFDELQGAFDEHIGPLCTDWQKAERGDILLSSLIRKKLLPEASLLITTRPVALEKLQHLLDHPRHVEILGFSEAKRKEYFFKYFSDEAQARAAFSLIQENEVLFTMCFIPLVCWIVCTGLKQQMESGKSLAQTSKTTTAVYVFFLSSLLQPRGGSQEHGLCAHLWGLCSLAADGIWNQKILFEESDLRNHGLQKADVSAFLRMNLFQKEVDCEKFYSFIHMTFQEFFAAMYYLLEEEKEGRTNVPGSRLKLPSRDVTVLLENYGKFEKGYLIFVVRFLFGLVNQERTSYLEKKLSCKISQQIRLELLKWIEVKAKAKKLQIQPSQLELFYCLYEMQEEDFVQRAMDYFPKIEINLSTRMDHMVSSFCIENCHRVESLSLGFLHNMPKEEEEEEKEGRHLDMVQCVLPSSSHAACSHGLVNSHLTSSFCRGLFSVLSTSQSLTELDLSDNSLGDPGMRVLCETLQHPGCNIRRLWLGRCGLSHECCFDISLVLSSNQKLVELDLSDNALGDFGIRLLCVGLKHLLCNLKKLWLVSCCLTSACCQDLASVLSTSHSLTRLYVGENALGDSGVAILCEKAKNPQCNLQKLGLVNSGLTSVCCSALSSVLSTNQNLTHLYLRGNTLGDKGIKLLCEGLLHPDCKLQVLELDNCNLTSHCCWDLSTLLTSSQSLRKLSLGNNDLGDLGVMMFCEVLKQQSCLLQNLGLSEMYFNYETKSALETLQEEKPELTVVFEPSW
Assay: THP-1 pyroptosis assay (caspase-1 p20 in supernatant by Western blot)
Assay type: cell-based
Conditions: PMA-differentiated THP-1, LPS 50 ng/ml 4 h, compound 30 min, nigericin 15 μM 45 min; caspase-1 p20 Western blot
MEASUREMENT_TYPE: IC50

Worked cases, IC50 given:
**Query** Tell me the measured IC50 of O=c1[nH]c(N2CCCC2)nc2nn(-c3c(F)cc(Br)cc3F)nc12 [Compound 99] , please.
**Result** < 10 nM

**Query** What value of measured IC50 is listed for CCN(CC)c1nc2nn(-c3c(C)cc(Br)cc3C)nc2c(=O)[nH]1 [Compound 95] ?
**Result** < 6.2 nM

**Query** Recorded IC50 for CCN1CCN(c2nc3nn(-c4c(C)cc(C5CC5)cc4F)nc3c(=O)[nH]2)CC1 [Compound 106] , please?
**Result** > 100 nM

Next up:
**Query** Value lookup for IC50; key = O=c1[nH]c(N2CCCC2)nc2nn(-c3c(Cl)cc(Br)cc3Cl)nc12 [Compound 91]
**Result** 7.5 nM

Values were extracted from patent US20250092051A1.
